I'd be grateful if you could share measured log10(D40) for these entries.
# Test system: L1210
# test: Antitumor activity against mouse L1210 cells […] in ip dosed C3H X DBA2 F1 hybrid mouse on day 0 and dosed once daily on days 1 to 5 assessed as increase in life span relative to control
# Type: functional
Scale: decimal log of D40, D40 in mg/kg.

Returns the measured log10(D40) for the input compound. Input: C[n+]1ccc(Nc2ccc(/C=C/c3ccc(Nc4cc[n+](C)c5ccccc45)cc3)cc2)cc1.[Br-].[Br-] 1.08

Another: C[n+]1cccc(NC(=O)c2ccc(NC(=O)c3ccc(C(=O)Nc4ccc(C(=O)Nc5ccc[n+](C)c5)cc4)c(N)c3)cc2)c1.Cc1ccc(S(=O)(=O)[O-])cc1.Cc1ccc(S(=O)(=O)[O-])cc1 0.59

Another: CCCC[n+]1cccc(NC(=O)c2ccc(NC(=O)c3ccc(C(=O)Nc4ccc5c(ccc[n+]5CCCC)c4)cc3)cc2)c1.Cc1ccc(S(=O)(=O)[O-])cc1.Cc1ccc(S(=O)(=O)[O-])cc1 1.51

Another: CC[n+]1cccc(NC(=O)c2ccc(NC(=O)c3ccc(C(=O)Nc4ccc(C(=O)Nc5ccc[n+](CC)c5)cc4OC)cc3)c(OC)c2)c1.Cc1ccc(S(=O)(=O)[O-])cc1.Cc1ccc(S(=O)(=O)[O-])cc1 1.01

Another: CCC[n+]1ccc(Nc2ccc(NC(=O)c3ccc(Nc4cc[n+](CCC)c5ccc(N)cc45)cc3)cc2N)cc1.[I-].[I-] 0.56

Another: C[n+]1ccc(Nc2ccc(NC(=O)c3ccc(Nc4cc[n+](C)c5cc(N)ccc45)cc3)cc2)cc1.[Br-].[Br-] 0.30

###

# test: Lipophilic-hydrophilic balance, Rm of the compound by partition chromatography
# Type: physicochemical
Response field label takes Satisfied when Rm is strictly below 0.05 and Not satisfied in all other cases.

# check: Rm < 0.05 for C[n+]1ccc(Nc2ccc(NC(=O)c3ccc(Nc4cc[n+](C)c5ccc(N)cc45)cc3N)cc2)cc1.[I-].[I-] Satisfied

Another: Br.C/C(=N\NC(=N)N)c1ccc(NC(=O)c2ccc(Nc3cc[n+](C)c4ccccc34)cc2)cc1.[Br-] Satisfied

Another: CCC[n+]1cccc2cc(NC(=O)/C=C/c3ccc(C(=O)Nc4ccc5c(ccc[n+]5CCC)c4)cc3)ccc21.Cc1ccc(S(=O)(=O)[O-])cc1.Cc1ccc(S(=O)(=O)[O-])cc1 Not satisfied

Another: CCC[n+]1cccc2cc(NC(=O)c3ccc(C(=O)Nc4ccc5c(ccc[n+]5CCC)c4)cc3)ccc21.Cc1ccc(S(=O)(=O)[O-])cc1.Cc1ccc(S(=O)(=O)[O-])cc1 Not satisfied

Another: C[n+]1cccc2ccc(NC(=O)c3ccc(-c4ccc(-c5ccc(-c6ccc(C(=O)Nc7ccc8ccc[n+](C)c8c7)cc6)cc5)cc4)cc3)cc21.Cc1ccc(S(=O)(=O)[O-])cc1.Cc1ccc(S(=O)(=O)[O-])cc1 Satisfied

Another: C[n+]1ccc(Nc2ccc(NC(=O)c3ccc(Nc4cc[n+](C)c5c(Cl)cccc45)cc3)cc2)cc1.Cc1ccc(S(=O)(=O)[O-])cc1.Cc1ccc(S(=O)(=O)[O-])cc1 Not satisfied

Another: C[n+]1ccc(Nc2ccc(NC(=O)c3ccc(Nc4cc[n+](C)c5ccccc45)cc3)cc2N)cc1.[I-].[I-] Not satisfied

Another: C[n+]1cccc(NC(=O)c2ccc(NC(=O)c3ccc(C(=O)Nc4ccc(N/N=N/c5ccc(C(=N)N)cc5)cc4)cc3)cc2)c1.Cc1ccc(S(=O)(=O)O)cc1.Cc1ccc(S(=O)(=O)[O-])cc1 Satisfied

Another: C[n+]1ccc(Nc2ccc(NC(=O)/C=C/c3ccc(Nc4cc[n+](C)c5ccccc45)cc3)cc2)cc1.[Br-].[Br-] Not satisfied

Another: CC[n+]1ccc(-c2ccc(NC(=O)c3ccc(Nc4cc[n+](CC)c5ccccc45)cc3)cc2)cc1.Cc1ccc(S(=O)(=O)[O-])cc1.Cc1ccc(S(=O)(=O)[O-])cc1 Not satisfied

Another: CC[n+]1cccc(NC(=O)c2ccc(NC(=O)c3ccc(C(=O)Nc4ccc(C(=O)Nc5ccc[n+](CC)c5)c(OC)c4)cc3)cc2OC)c1.Cc1ccc(S(=O)(=O)[O-])cc1.Cc1ccc(S(=O)(=O)[O-])cc1 Not satisfied

Another: C[n+]1cccc2cc(NC(=O)c3ccc(-c4ccc(-c5ccc(-c6ccc(C(=O)Nc7ccc8c(ccc[n+]8C)c7)cc6)cc5)cc4)cc3)ccc21.Cc1ccc(S(=O)(=O)[O-])cc1.Cc1ccc(S(=O)(=O)[O-])cc1 Satisfied

Another: Br.C/C(=N\NC(=N)N)c1ccc(C(=O)Nc2ccc(Nc3cc[n+](C)c4cc(N)ccc34)cc2)cc1.[Br-] Satisfied

###

# test: Lipophilic-hydrophilic balance, Rm of the compound by partition chromatography
# Assay type: physicochemical
I'd be grateful if you could share measured Rm for these entries.
Write the number on its own, no unit after it.

Returns the measured Rm for the input compound. Input: CC[n+]1cccc2cc(NC(=O)/C=C/c3ccc(C(=O)Nc4ccc5c(ccc[n+]5CC)c4)cc3)ccc21.Cc1ccc(S(=O)(=O)[O-])cc1.Cc1ccc(S(=O)(=O)[O-])cc1 0.11

Another: CC[n+]1cccc2cc(NC(=O)c3ccc(NC(=O)c4ccc(C(=O)Nc5ccc6c(ccc[n+]6CC)c5)cc4)cc3)ccc21.Cc1ccc(S(=O)(=O)[O-])cc1.Cc1ccc(S(=O)(=O)[O-])cc1 -0.52

Another: CCC[n+]1cccc(NC(=O)c2ccc(NC(=O)C34CCC(C(=O)Nc5ccc(C(=O)Nc6ccc[n+](CCC)c6)cc5)(CC3)CC4)cc2)c1.Cc1ccc(S(=O)(=O)[O-])cc1.Cc1ccc(S(=O)(=O)[O-])cc1 0.86

Another: Cc1cc(Nc2ccc(NC(=O)c3ccc(C(=O)Nc4ccc(C(=O)Nc5ccc[n+](C)c5)cc4)cc3)cc2)nc(N)[n+]1C.[I-].[I-] -0.6

Another: CCC[n+]1cccc(NC(=O)c2ccc(NC(=O)c3ccc(C(=O)Nc4ccc(C(=O)Nc5ccc[n+](CCC)c5)cc4)c(C)c3)cc2)c1.Cc1ccc(S(=O)(=O)[O-])cc1.Cc1ccc(S(=O)(=O)[O-])cc1 0.75

Another: CC[n+]1cc(-c2ccc(NC(=O)c3ccc(C(=O)Nc4ccc(-c5c[n+](CC)c(N)nc5N)cc4)cc3)cc2)c(N)nc1N.Cc1ccc(S(=O)(=O)[O-])cc1.Cc1ccc(S(=O)(=O)[O-])cc1 -0.19

Another: CCC[n+]1ccccc1-c1ccc(NC(=O)c2ccc(C(=O)Nc3ccc(-c4cccc[n+]4CCC)cc3)cc2)cc1.Cc1ccc(S(=O)(=O)[O-])cc1.Cc1ccc(S(=O)(=O)[O-])cc1 0.4

Another: Cc1cc(C(=O)Nc2ccc(C(=O)Nc3ccc[n+](C)c3)cc2)ccc1C(=O)Nc1ccc(C(=O)Nc2ccc[n+](C)c2)cc1.Cc1ccc(S(=O)(=O)[O-])cc1.Cc1ccc(S(=O)(=O)[O-])cc1 0.06

Another: CCC[n+]1ccc(Nc2ccc(NC(=O)c3ccc(Nc4cc[n+](CCC)c5ccccc45)cc3)cc2N)cc1.[I-].[I-] 0.76

Another: C[n+]1cc(-c2ccc(NC(=O)/C=C/c3ccc(C(=O)Nc4ccc(-c5c[n+](C)c(N)nc5N)cc4)cc3)cc2)c(N)nc1N.Cc1ccc(S(=O)(=O)[O-])cc1.Cc1ccc(S(=O)(=O)[O-])cc1 -0.62

Another: CC[n+]1cc(-c2ccc(NC(=O)c3ccc(Nc4cc[n+](CC)c5ccc(N)cc45)cc3N)cc2)c(N)nc1N.Cc1ccc(S(=O)(=O)[O-])cc1.Cc1ccc(S(=O)(=O)[O-])cc1 0.33

Another: C[n+]1ccccc1-c1ccc(NC(=O)c2ccc(C(=O)Nc3ccc(-c4cccc[n+]4C)cc3)cc2)cc1.Cc1ccc(S(=O)(=O)[O-])cc1.Cc1ccc(S(=O)(=O)[O-])cc1 0.11

Another: C[n+]1ccc(Nc2ccc(NC(=O)CCCCCCC(=O)Nc3ccc(Nc4cc[n+](C)cc4)cc3)cc2)cc1.[Br-].[Br-] 0.59

Another: C[n+]1ccc(-c2ccc(-c3ccc(-c4ccc(NC(=O)c5ccc(C(=O)Nc6ccc(-c7ccc(-c8ccc(-c9cc[n+](C)cc9)cc8)cc7)cc6)cc5)cc4)cc3)cc2)cc1.Cc1ccc(S(=O)(=O)[O-])cc1.Cc1ccc(S(=O)(=O)[O-])cc1 -0.3

Another: CCC[n+]1ccc(Nc2ccc(NC(=O)c3ccc(Nc4cc[n+](CCC)c5ccccc45)cc3N)cc2)cc1.[I-].[I-] 0.71

###

# Tested on: Mus musculus
# test: Toxicity in ip dosed C3H X DBA2 F1 hybrid mouse […] with mouse L1210 cells on day 0 and dosed once daily on days 1 to 5 measured after 50 days
# Assay type: organism-based
# conditionContext: in vivo, 1200 h
I'd be grateful if you could share measured log10 LD10 for these entries.
Scale: decimal log of LD10, LD10 in mg/kg.

Returns the measured log10 LD10 for the input compound. Input: C(=C\c1ccc(-[n+]2ccccc2)cc1)/c1ccc(/C=C/c2ccc(-[n+]3ccccc3)cc2)cc1.Cc1ccc(S(=O)(=O)[O-])cc1.Cc1ccc(S(=O)(=O)[O-])cc1 0.85

Another: C[n+]1cc(-c2ccc(NC(=O)c3ccc(Nc4cc[n+](C)c5ccc(N)cc45)cc3N)cc2)c(N)nc1N.Cc1ccc(S(=O)(=O)[O-])cc1.Cc1ccc(S(=O)(=O)[O-])cc1 1.88

Another: CCC[n+]1ccccc1Nc1ccc(NC(=O)c2ccc(C(=O)Nc3ccc(Nc4cccc[n+]4CCC)cc3)cc2)cc1.Cc1ccc(S(=O)(=O)[O-])cc1.Cc1ccc(S(=O)(=O)[O-])cc1 2.00

Another: C[n+]1ccc(Nc2ccc(NC(=O)/C=C/c3ccc(Nc4cc[n+](C)c5ccccc45)cc3)cc2)cc1.[Br-].[Br-] 1.34

Another: CC[n+]1cccc(NC(=O)c2ccc(NC(=O)c3ccc(NC(=O)c4ccc(C(=O)Nc5ccc[n+](CC)c5)cc4)cc3)cc2)c1.Cc1ccc(S(=O)(=O)[O-])cc1.Cc1ccc(S(=O)(=O)[O-])cc1 1.52

Another: CCC[n+]1ccc(Nc2ccc(NC(=O)c3ccc(Nc4cc[n+](CCC)c5ccccc45)cc3N)cc2)cc1.[I-].[I-] 1.38

Another: CC[n+]1cccc(NC(=O)c2ccc(NC(=O)/C=C/c3ccc(C(=O)Nc4ccc(C(=O)Nc5ccc[n+](CC)c5)cc4)cc3)cc2)c1.Cc1ccc(S(=O)(=O)[O-])cc1.Cc1ccc(S(=O)(=O)[O-])cc1 1.74

Another: C[n+]1cccc2cc(NC(=O)c3ccc(C(=O)Nc4ccc5c(ccc[n+]5C)c4)nc3)ccc21.Cc1ccc(S(=O)(=O)[O-])cc1.Cc1ccc(S(=O)(=O)[O-])cc1 0.60

Another: CC[n+]1ccccc1NC(=O)c1ccc(NC(=O)c2ccc(C(=O)Nc3ccc(C(=O)Nc4cccc[n+]4CC)cc3)cc2)cc1.Cc1ccc(S(=O)(=O)[O-])cc1.Cc1ccc(S(=O)(=O)[O-])cc1 1.11

Another: C[n+]1cccc2cc(NC(=O)COc3ccc(C(=O)Nc4ccc5c(ccc[n+]5C)c4)cc3)ccc21.Cc1ccc(S(=O)(=O)[O-])cc1.Cc1ccc(S(=O)(=O)[O-])cc1 -0.22

Another: CC[n+]1cc(-c2ccc(NC(=O)c3ccc(C(=O)Nc4ccc(-c5c[n+](CC)c(N)nc5N)cc4)cc3)cc2)c(N)nc1N.Cc1ccc(S(=O)(=O)[O-])cc1.Cc1ccc(S(=O)(=O)[O-])cc1 1.18

Another: C[n+]1ccc(Nc2ccc(NC(=O)c3ccc(Nc4cc[n+](C)c5ccccc45)cc3N)cc2N)cc1.[I-].[I-] 1.26

Another: C[n+]1ccc(Nc2ccc(NC(=O)c3ccc(Nc4cc[n+](C)c5ccc(N)cc45)cc3N)cc2)cc1.[I-].[I-] 1.30

Another: C[n+]1ccc(Nc2ccc(/C=C/c3ccc(Nc4cc[n+](C)c5ccccc45)cc3)cc2)cc1.[Br-].[Br-] 1.36
